biological target: UniProt:P08581
Sequence (P08581 25-1390): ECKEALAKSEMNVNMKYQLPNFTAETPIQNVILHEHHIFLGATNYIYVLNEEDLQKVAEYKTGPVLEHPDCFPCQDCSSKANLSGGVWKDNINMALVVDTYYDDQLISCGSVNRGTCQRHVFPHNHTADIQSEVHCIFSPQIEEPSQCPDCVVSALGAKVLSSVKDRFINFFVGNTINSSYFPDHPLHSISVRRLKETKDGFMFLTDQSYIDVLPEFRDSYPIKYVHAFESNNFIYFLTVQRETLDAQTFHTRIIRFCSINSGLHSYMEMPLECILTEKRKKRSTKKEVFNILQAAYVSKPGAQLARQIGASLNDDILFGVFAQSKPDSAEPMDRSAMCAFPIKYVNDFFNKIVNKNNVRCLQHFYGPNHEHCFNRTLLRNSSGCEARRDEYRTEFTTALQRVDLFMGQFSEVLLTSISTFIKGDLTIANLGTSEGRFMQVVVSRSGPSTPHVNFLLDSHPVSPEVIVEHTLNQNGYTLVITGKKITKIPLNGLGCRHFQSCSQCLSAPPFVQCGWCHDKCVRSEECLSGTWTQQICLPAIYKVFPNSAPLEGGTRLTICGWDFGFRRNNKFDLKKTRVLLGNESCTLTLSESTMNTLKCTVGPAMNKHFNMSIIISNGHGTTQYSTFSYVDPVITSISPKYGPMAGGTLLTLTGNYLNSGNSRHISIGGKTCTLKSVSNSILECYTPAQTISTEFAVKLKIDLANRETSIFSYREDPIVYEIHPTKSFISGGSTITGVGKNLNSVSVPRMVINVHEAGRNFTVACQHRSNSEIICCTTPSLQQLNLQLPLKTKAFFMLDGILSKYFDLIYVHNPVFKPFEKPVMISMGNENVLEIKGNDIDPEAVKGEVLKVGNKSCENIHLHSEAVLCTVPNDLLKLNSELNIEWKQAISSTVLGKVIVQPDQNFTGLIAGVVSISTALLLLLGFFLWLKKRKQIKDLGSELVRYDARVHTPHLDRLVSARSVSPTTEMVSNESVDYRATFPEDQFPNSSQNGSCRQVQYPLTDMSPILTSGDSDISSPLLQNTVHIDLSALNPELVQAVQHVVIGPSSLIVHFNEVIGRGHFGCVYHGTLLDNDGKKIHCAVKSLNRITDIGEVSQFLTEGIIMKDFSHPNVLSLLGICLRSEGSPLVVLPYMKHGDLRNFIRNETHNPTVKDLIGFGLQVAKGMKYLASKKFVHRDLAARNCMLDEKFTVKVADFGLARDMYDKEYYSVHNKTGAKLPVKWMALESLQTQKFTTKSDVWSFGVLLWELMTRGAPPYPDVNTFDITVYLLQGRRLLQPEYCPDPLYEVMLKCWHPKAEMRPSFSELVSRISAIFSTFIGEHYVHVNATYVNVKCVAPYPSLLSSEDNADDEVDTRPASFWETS
Catalogue of IC50 values
measured.quantity: IC50

INSERT INTO results (compound, reported_value) VALUES
  ('CNCCOc1cc2nccc(Oc3c(F)cc(NC(=O)c4cnccc4OCCOC)cc3F)c2cc1OC', '≤ 100 nM'),
  ('CC(C)(O)COc1ccc2c(Oc3c(F)cc(NC(=O)c4cnccc4OC4CC4)cc3F)ccnc2c1', '≤ 100 nM'),
  ('COc1cc2nccc(Oc3c(F)cc(NC(=O)c4cnccc4OC4CC4)c(F)c3F)c2cc1OC', '≤ 100 nM'),
  ('CNCCOc1cc2nccc(Oc3c(F)cc(NC(=O)c4cnccc4OC4CC(F)(F)C4)cc3F)c2cc1OC', '≤ 100 nM'),
  ('CNCCOc1ccc2c(Oc3c(F)cc(NC(=O)c4cnccc4OC4CC4)cc3F)ccnc2c1', '≤ 100 nM'),
  ('COc1cc2c(Oc3c(F)cc(NC(=O)c4ccccc4F)cc3F)ccnc2cc1OCCO', '≤ 100 nM'),
  ('COc1cc2c(Oc3c(F)cc(NC(=O)c4cnccc4OC4CC4)cc3F)ccnc2cc1OCCO', '≤ 100 nM'),
  ('CNCCOc1cc2nccc(Oc3c(F)cc(NC(=O)c4cnccc4OC(C)C)cc3F)c2cc1OC', '≤ 100 nM'),
  ('CNCCCOc1cc2nccc(Oc3c(F)cc(NC(=O)c4c(OC)ccnc4F)cc3F)c2cc1OC', '≤ 100 nM'),
  ('CNCCOc1cc2nccc(Oc3c(F)cc(NC(=O)c4cnccc4OC(F)F)cc3F)c2cc1OC', '≤ 100 nM'),
  ('COCCOc1cnc2c(Oc3c(F)cc(NC(=O)c4cnccc4OC)cc3F)ccnc2c1', '≤ 100 nM'),
  ('COc1ccncc1C(=O)Nc1cc(F)c(Oc2ccnc3ccc(O[C@@H](C)CO)cc23)c(F)c1', '≤ 100 nM'),
  ('COc1cc2c(Oc3c(F)cc(NC(=O)c4cnccc4OC)cc3F)ccnc2cc1OC(F)F', '≤ 100 nM'),
  ('COCCOc1ccc2c(Oc3c(F)cc(NC(=O)c4cnccc4OC)cc3F)ccnc2c1', '≤ 100 nM'),
  ('CNCCOc1cc2nccc(Oc3c(F)cc(NC(=O)c4cnc(C)nc4OC4CC4)cc3F)c2cc1OC', '≤ 100 nM'),
  ('COc1cc2nccc(Oc3c(F)cc(NC(=O)c4cnccc4OC)cc3F)c2cc1O[C@H](C)CO', '≤ 100 nM');
